- experimental_system: HLA-DR3 (DRB1*0301) (human)
measure_name: binding affinity ratio (IC50 of standard peptide / IC50 of test peptide)
One number for each entry.

Below, each entry is followed by its recorded binding affinity ratio (IC50 of standard peptide / IC50 of test peptide) result.
binder	observed_result
ILSVFFLALFFIIFN (modifications not checked)	-0.0008
LIDVHDLISDMIKKE (modifications not checked)	0.01
LGNVKYLVIVFLIFF (modifications not checked)	-0.0008
IGPFMKAVCVEVEKT (modifications not checked)	-0.0008

As a next step, examine the binder that follows.
Challenge: State the recorded binding affinity ratio (IC50 of standard peptide / IC50 of test peptide) for this entry: VSTVLLGGVGLVLYN (modifications not checked)
Response given: -0.0008
